Hi there, I'd appreciate the recorded pIC50 for every entry that follows.
- ASSAYED SYSTEM: recombinant human baculovirus-expressed GST-tagged FASN (Homo sapiens, UniProt P49327)
- Construct: GST
- Sequence (P49327 whole entry): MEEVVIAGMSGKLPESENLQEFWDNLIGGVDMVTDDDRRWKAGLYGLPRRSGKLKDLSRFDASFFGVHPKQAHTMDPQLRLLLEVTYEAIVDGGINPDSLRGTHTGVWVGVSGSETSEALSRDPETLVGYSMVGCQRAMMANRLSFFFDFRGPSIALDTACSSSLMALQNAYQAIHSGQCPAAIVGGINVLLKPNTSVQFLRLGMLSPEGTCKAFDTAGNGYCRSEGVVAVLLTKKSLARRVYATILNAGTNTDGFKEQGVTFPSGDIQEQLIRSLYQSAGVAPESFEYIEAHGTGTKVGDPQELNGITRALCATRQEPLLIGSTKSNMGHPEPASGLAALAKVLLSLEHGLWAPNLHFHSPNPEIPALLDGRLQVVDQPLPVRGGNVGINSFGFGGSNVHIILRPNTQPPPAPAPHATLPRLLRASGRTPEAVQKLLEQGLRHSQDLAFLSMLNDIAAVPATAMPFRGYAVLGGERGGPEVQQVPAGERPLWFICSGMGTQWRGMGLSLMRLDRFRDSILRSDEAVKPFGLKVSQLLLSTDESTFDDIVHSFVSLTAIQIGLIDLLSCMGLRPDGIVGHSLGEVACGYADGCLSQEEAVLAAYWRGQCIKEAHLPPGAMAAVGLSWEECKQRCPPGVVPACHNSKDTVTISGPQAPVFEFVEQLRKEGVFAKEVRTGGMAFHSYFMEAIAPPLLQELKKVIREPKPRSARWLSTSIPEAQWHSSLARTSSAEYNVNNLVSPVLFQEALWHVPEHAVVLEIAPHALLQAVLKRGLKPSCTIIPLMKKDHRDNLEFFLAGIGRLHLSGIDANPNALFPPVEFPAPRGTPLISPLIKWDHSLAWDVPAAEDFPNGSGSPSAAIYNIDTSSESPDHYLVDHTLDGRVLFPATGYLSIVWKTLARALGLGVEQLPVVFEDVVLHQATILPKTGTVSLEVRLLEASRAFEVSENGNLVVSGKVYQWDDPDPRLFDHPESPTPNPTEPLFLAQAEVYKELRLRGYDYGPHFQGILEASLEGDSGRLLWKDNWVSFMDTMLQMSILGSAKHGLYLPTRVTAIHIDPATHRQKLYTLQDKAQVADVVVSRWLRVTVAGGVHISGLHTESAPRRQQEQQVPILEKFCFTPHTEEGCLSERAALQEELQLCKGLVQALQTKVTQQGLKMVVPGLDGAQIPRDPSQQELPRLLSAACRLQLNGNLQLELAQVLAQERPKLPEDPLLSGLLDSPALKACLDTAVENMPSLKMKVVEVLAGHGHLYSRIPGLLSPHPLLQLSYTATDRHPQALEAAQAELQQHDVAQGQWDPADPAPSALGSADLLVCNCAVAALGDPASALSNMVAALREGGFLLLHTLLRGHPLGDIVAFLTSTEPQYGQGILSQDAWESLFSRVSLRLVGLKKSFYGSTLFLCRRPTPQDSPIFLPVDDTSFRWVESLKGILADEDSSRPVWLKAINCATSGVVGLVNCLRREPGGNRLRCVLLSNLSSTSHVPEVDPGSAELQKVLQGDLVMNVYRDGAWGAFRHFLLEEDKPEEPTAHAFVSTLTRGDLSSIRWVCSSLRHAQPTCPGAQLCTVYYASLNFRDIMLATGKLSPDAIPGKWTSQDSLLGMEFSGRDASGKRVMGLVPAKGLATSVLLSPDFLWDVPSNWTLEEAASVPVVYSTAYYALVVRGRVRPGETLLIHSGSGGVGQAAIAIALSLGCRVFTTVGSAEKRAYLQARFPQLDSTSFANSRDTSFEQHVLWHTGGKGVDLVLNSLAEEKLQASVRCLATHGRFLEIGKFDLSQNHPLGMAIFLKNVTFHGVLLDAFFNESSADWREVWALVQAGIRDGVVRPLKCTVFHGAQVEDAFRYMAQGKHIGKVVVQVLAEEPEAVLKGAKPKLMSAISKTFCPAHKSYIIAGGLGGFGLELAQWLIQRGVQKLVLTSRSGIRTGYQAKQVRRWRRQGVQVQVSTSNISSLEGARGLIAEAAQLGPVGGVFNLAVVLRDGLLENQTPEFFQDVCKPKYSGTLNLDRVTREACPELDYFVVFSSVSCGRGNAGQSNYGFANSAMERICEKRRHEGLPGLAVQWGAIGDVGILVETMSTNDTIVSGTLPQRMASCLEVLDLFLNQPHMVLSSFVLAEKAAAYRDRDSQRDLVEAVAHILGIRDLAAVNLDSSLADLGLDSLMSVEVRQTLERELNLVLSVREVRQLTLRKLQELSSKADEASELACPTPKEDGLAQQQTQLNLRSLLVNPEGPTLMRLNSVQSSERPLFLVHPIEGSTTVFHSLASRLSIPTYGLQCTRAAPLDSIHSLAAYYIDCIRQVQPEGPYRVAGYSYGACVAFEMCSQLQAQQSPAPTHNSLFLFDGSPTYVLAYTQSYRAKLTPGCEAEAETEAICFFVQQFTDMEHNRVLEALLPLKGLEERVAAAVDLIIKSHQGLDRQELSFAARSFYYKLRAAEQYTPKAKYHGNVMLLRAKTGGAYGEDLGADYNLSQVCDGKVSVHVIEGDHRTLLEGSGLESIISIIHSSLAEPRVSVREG
- ASSAY REMARKS: FASN enzyme activity assay, fluorescence-based detection of CoA with CPM
- Assay type: biochemical
- REPORTED CONDITIONS: 5 nM FASN, 150 μM NADPH, 10 μM acetyl-CoA, 25 μM malonyl-CoA, 90 minutes incubation; read-out: IC50 data for Compounds of Formulae I-V/V(a): Activity
pIC50: −log10 of the molar value. Structures can show the parent of a compound that is named as a salt.

### Prompt // pIC50 lookup, key: CCC(=O)N1CCC(Oc2ccc(-c3ccc4nccn4c3C)cc2)CC1
### Response 5.00 to 6.00

### Prompt // pIC50 lookup, key: O=C(N1CCC(Oc2ccc(-c3cnc4ccccc4c3Cl)cc2)CC1)N1CCCO1
### Response 7.00 to 9.00

### Prompt // pIC50 lookup, key: CCNC(=O)N1CCC(Oc2ccc(-c3ccc4cccnc4c3OC)cc2)CC1
### Response 7.00 to 9.00

### Prompt // pIC50 lookup, key: CCC(=O)N1CCC(Oc2ccc(-c3cc4ccccc4o3)cc2)CC1
### Response 6.00 to 7.00

### Prompt // pIC50 lookup, key: COc1cc2ncc(-c3ccc(OC4CCN(C(=O)C5CC5)CC4)cc3)cc2cc1F
### Response 5.00 to 6.00

### Prompt // pIC50 lookup, key: Cc1cccc2ncc(-c3ccc(OC4CCN(C(=O)[C@H]5CCCO5)CC4)cc3)cc12 [Example 462, HCl]
### Response 7.00 to 9.00

### Prompt // pIC50 lookup, key: CCC(=O)N1CCC(Oc2cc(F)c(-c3cnc4ccccc4c3)cc2F)CC1
### Response 6.00 to 7.00

### Prompt // pIC50 lookup, key: CCC(=O)N1CCC(Oc2ccc(-c3ccc4c(c3)OCCO4)cc2)CC1
### Response 5.00 to 6.00

### Prompt // pIC50 lookup, key: CCNC(=O)N1CCC(Oc2ccc(-c3cnc4ccccc4c3C)cc2)CC1
### Response 7.00 to 9.00

### Prompt // pIC50 lookup, key: O=C(C1CC1)N1CCC(Oc2ccc(-c3cnc4ccccc4n3)cc2)CC1
### Response 6.00 to 7.00

### Prompt // pIC50 lookup, key: O=C(C1CC1)N1CCC(Oc2ccc(-c3ccc(OCc4ccccc4)cc3F)cc2)CC1
### Response 5.00 to 6.00

### Prompt // pIC50 lookup, key: Cc1ccc2ncccc2c1-c1ccc(OC2CCN(C(=O)C3CC3)CC2)cc1 [Example 351, HCl]
### Response 6.00 to 7.00

### Prompt // pIC50 lookup, key: N#Cc1cnc2cc(-c3ccc(OC4CCN(C(=O)[C@H]5CCCO5)CC4)cc3)ccc2c1
### Response 7.00 to 9.00

### Prompt // pIC50 lookup, key: CCC(=O)N1CCC(Oc2ccc(-c3cnc4cc(OC)c(F)cc4c3)cc2)CC1
### Response 5.00 to 6.00

### Prompt // pIC50 lookup, key: O=C(N1CCC(Oc2ccc(-c3ccc4cncn4c3)cc2)CC1)C1(O)CC1
### Response 7.00 to 9.00

### Prompt // pIC50 lookup, key: CCC(=O)N1CCC(Oc2ccc(-c3cc4ccccc4cn3)cc2)CC1
### Response 7.00 to 9.00

### Prompt // pIC50 lookup, key: Cn1ncc2ccc(-c3ccc(OC4CCN(C(=O)[C@H]5CCCO5)CC4)cc3)cc21
### Response 7.00 to 9.00

### Prompt // pIC50 lookup, key: CCC(=O)N1CCC(Oc2ccc(-c3ccc4cccnc4c3OC)cc2)CC1 [Example 273, TFA salt]
### Response 7.00 to 9.00

### Prompt // pIC50 lookup, key: CN(C)c1c(-c2ccc(OC3CCN(C(=O)[C@H]4CCCO4)CC3)cc2)ccc2cccnc12
### Response 7.00 to 9.00

### Prompt // pIC50 lookup, key: O=C(C1CC1)N1CCC(Oc2ccc(-c3ccc4cccnc4c3Cl)cc2)CC1
### Response 7.00 to 9.00

### Prompt // pIC50 lookup, key: O=C([C@H]1CCCO1)N1CCC(Oc2ccc(-c3ccc4cccnc4c3C3CC3)cc2)CC1 [Example 475, HCl]
### Response 7.00 to 9.00

### Prompt // pIC50 lookup, key: COCC(=O)N1CCC(Oc2ccc(-c3cnc4ccccc4c3)cc2)CC1
### Response 7.00 to 9.00

### Prompt // pIC50 lookup, key: CCC(=O)N1CCC(Oc2ccc(-c3cccc(Oc4ccccc4)c3)cc2)CC1
### Response 5.00 to 6.00

### Prompt // pIC50 lookup, key: O=C(C1CC1)N1CCC(Oc2ccc(-c3cnc4ccccc4c3)cc2)CC1 [Example 100, HCl]
### Response 7.00 to 9.00

### Prompt // pIC50 lookup, key: CCC(=O)N1CCC(Oc2ccc(-c3ccc4sccc4c3)cc2)CC1
### Response 6.00 to 7.00

### Prompt // pIC50 lookup, key: O=C([C@H]1CCCO1)N1CCC(Oc2ccc(-c3ccc4cccnc4c3O)cc2)CC1 [Example 190, HCl]
### Response 7.00 to 9.00

### Prompt // pIC50 lookup, key: CCC(=O)N1CCC(Oc2ccc(-c3cnc4c(OC)cccc4c3)cc2)CC1
### Response 6.00 to 7.00

### Prompt // pIC50 lookup, key: CCC(=O)N1CCC(Sc2ccc(-c3cnc4ccccc4c3)cc2)CC1 [Example 518, HCl]
### Response 7.00 to 9.00

### Prompt // pIC50 lookup, key: COc1ccc(-c2ccc(OC3CCN(C(=O)C(C)C)CC3)cc2)cc1OC
### Response 5.00 to 6.00

### Prompt // pIC50 lookup, key: CCC(=O)N1CCC(Oc2ccc(-c3cc(OC)c4ccnn4c3)cc2)CC1 [Example 410, HCl]
### Response 6.00 to 7.00

### Prompt // pIC50 lookup, key: Cc1c(-c2ccc(OC3CCN(C(=O)C4(CO)CC4)CC3)cc2)ccc2nccn12
### Response 5.00 to 6.00

### Prompt // pIC50 lookup, key: O=C(C1CC1)N1CCC(Oc2ccc(-c3ccc4c(c3)OCCO4)cc2)CC1
### Response 5.00 to 6.00

### Prompt // pIC50 lookup, key: O=C(C1CCCO1)N1CCC(Oc2ccc(-c3cnc4ccccc4c3)cc2)CC1 (stereo not shown) [Example 126, HCl]
### Response 7.00 to 9.00

### Prompt // pIC50 lookup, key: COc1ccc2cc(-c3ccc(OC4CCN(C(=O)C5CC5)CC4)cc3)cnc2c1
### Response 7.00 to 9.00
